system: Panc 05.04 cells (pancreatic cancer cells; Q699H and K700E mutations in SF3B1); assay: Cell viability assay (CellTiter-Glo, 72 hr), Panc 05.04 cells; type: cell-based; details: Panc 05.04 cells (mutant SF3B1); read-out: Panc 05.04 (mt SF3B1 cells), GI50
# GI50 values compiled below
Give the number; µM is assumed, so skip it.

Query: GI50; subject: C/C(=C\C=C\[C@@H](C)COC(=O)N1CCC(=O)C1)[C@H]1OC(=O)C[C@H](O)CC[C@@](C)(O)[C@@H](OC(=O)N2CCN(C3CCCCCC3)CC2)/C=C/[C@@H]1C
0.00285

Moving on to the next compound: C/C(=C\C=C\[C@@H](C)c1ccccn1)[C@H]1OC(=O)C[C@H](O)CC[C@@](C)(O)[C@@H](OC(=O)N2CC3CCC(C2)N3C2CCCCCC2)/C=C/[C@@H]1C
0.065

Moving on to the next compound: CC(=O)O[C@H]1/C=C/[C@H](C)[C@@H](/C(C)=C/C=C/[C@@H](C)COC(=O)N2CCOCC2)OC(=O)C[C@H](O)CC[C@@]1(C)O
0.0155

All values here come from patent US11926619B2.
